target or system: Fuc(a1-2)[GalNAc(a1-3)]Gal(b1-3)GlcNAc
experiment summary: glycan array binding signal (z-score within array); higher = stronger binding
assay context: glycan notation: IUPAC condensed, linker removed
Only a selection was taken, and the strongest signals are over-represented in it overall.
measure: glycan array binding signal (z-score)
Simply state the number, no unit and no words.

Data request: Identify the reported glycan array binding signal (z-score) for the following entry. F17bG (Escherichia coli), Q47200 (protein) MTNFYKVFLAVFILVCCNISHAVVSFIGSTENDVGPSQGSYSSTHAMDNLPFVYNTGYNIGYQNANVWRIGGGFCVGLDGKVDLPVVGSLDGQSIYGLTEEVGLLIWMGDTNYSRGTAMSGNSWENVFSGWCVGNYLSTQGLSVHVRPVILKRNSSAQYSVQKTSIGSIRMRPYNGSSAGSVQTTVNFSLNPFTLNDTVTSCRLLTPSAVNVSLAAISAGQLPSSGDEVVAGTTSLKLQCDAGVTVWATLTDATTPSNRSDILTLTGASTATGVGLRIYKNTDSTPLKFGPDSPVKGNENQWQLSTGTETSPSVRLYVKYVNTGEGINPGTVNGISTFTFSYQ
Data returned: -0.567

All values here come from the supplement of paper PMC8728848.
